# Tested on: OVCAR-4 ovarian
# test_summary: NCI tumour cell line growth inhibition, 48 h; in the data active = GI50 below about 0.43 µM; inactive = the rest
Bench note: report the call from active, inactive

// query Short answer needed: outcome of this test for CC(=O)Nc1c(Br)cc2c(c1Br)Cc1cc(Br)ccc1-2 ?
// result inactive

// query Short answer needed: outcome of this test for CN1C[C@@H](c2ccc(Cl)cc2)[C@]2(NC(=S)N(c3ccc(F)c(Cl)c3)C2=O)[C@@]12C(=O)NC1C=CC(Cl)=C[C@H]12 (some centres undefined) ?
// result inactive

// query Short answer needed: outcome of this test for C/C=C/C1=CN2C(=O)c3cc(OC4OC(C)C(NC)C(C)(O)C4O)c(C)cc3N=C[C@@H]2C1 (some centres undefined) ?
// result active

// query Short answer needed: outcome of this test for CC(C)OP(=O)(OC(C)C)c1ncc(-c2ccc(C(F)(F)F)cc2)c(NC2CCCCCC2)n1 ?
// result inactive
